Test system: OVCAR-5 ovarian
Procedure Summary: NCI-60 one-dose screen, 48 h (100 = growth as untreated, 0 = no growth, -100 = all killed)
Protocol Conditions: 10 µM unless noted
This is part of a sample that, as a whole, favours compounds with a hit. Of some 83,000 tested, about 20% had one in any assay.
Exercise: for every item that follows, state its recorded growth.
Numbers only, in %.

response.value for Fc1ccc(NCc2cn(-c3ccccc3)nc2-c2ccc(OCc3ccccc3)cc2)cc1Cl (field: growth) = 86.6

I need growth for every entry listed below, if you could help.
1. Cc1nc(N)sc1-c1ccnc(Nc2ccc(N3CCOCC3)cc2)n1
2. CCc1nc2ccc(Cc3ccc(C(=O)NO)cc3)cc2c(=O)n1CCc1ccccc1
3. COc1cnc2c(c1)C(=O)c1c-2n(CCCN2CCOCC2)c(=O)c2cc(Cl)ccc12
4. COc1cc(CCc2cc(NC(=O)c3ccc(N4C[C@@H](C)N[C@@H](C)C4)cc3)n[nH]2)cc(OC)c1
5. O=C1CC(c2cccc(F)c2)c2c(n[nH]c2-c2ccc(Cl)cc2)N1 (stereo not drawn)
6. C[C@@H](Oc1cc(-n2cnc3ccc(CN4CCN(C)CC4)cc32)sc1C(N)=O)c1ccccc1C(F)(F)F
7. Cc1ccc(C(=O)Nc2ccc(CN3CCN(C)CC3)c(C(F)(F)F)c2)cc1C#Cc1cnc2cccnn12
8. Cn1cc(-c2cnn3c(N)c(Br)c([C@@H]4CCCNC4)nc23)cn1

Data returned:
[42.8, 1.71, 69.1, 29.7, 84.7, 19.9, -81.9, 56.9]

Give growth for each of the items listed below.
1. CC(C)=CCc1cc2c(cc1O)C1=C(C(=O)C3=C(NCCS3(=O)=O)C1=O)C(C=C(C)C)O2 (stereo not drawn)
2. COc1cc(Nc2ncc(F)c(Nc3ccc4c(n3)NC(=O)C(C)(C)O4)n2)cc(OC)c1OC
3. CNC(=O)c1cc(Oc2ccc(NC(=O)Nc3cc(C(C)(C)C)nn3-c3ccc4ncccc4c3)c(F)c2)ccn1

Data returned:
154
24.1
-3.54

Kindly give each listed record's growth.
1. C[C@@H](Oc1cc(C(=O)Nc2ccc(C(=O)N3CCN(C)CC3)cc2)nnc1N)c1c(Cl)ccc(F)c1Cl
2. C[C@H]1Oc2cc(cnc2N)-c2c(nn(C)c2C#N)CN(C)C(=O)c2ccc(F)cc21
3. COc1ccc2c(CCC(c3ccccc3)c3ccccc3)c3[n+](cc2c1OC)CCc1cc2c(cc1-3)OCO2
4. CNC(=O)c1ccccc1Nc1nc(Nc2ccc3c(c2OC)CCC[C@H](N2CCN(CCO)CC2)C3)ncc1Cl
5. CCn1cc(-c2ccnc3[nH]c(-c4cccc(CN(C)C)c4)cc23)c(-c2ccc(NC(=O)N(C)C)cc2)n1
6. O=C1OCC2=C1C(c1cccc(F)c1)c1cc3c(cc1N2CCO)OCCO3 (stereo not drawn)

Data returned:
1: 75.3; 2: 58.3; 3: 29; 4: 11.1; 5: 24.5; 6: 30.8

---

Test system: TK-10 renal
Procedure Summary: NCI-60 one-dose screen, 48 h
Protocol Conditions: 10 µM unless noted
Compounds without any hit were thinned out: in the full panel of roughly 83,000, 20% have a hit. Active and inactive are the calls of the source. Rule for the calls: active = growth percent below 10; inactive = the rest.
Mark one answer only. Choices: active, inactive

Here's what some known entries look like.
Data request: What did this assay record as the result for Oc1ccc(C(c2ccc(O)cc2)C(Cl)(Cl)Cl)cc1 ?
Data returned: inactive

Data request: Which outcome was assigned to Clc1nc(Cl)c2ncn(C/C=C\Cn3cnc4c(Cl)nc(Cl)nc43)c2n1 in this test?
Data returned: active

Data request: Which outcome did this test record for the compound CC1(O)CCC2CC3OC3(C)CCC3OC3(C)C(O)CC1C2(C)C (centres undefined) ?
Data returned: inactive

Proceed to the following item.
Data request: Query: recorded result category for COC(=O)[C@]12CC[C@@H](C)[C@H](C)[C@@H]1C1=CC[C@@H]3[C@@]4(C)C[C@@H](OC(=O)/C=C/c5ccccc5)[C@H](O)[C@@](C)(CO)[C@@H]4[C@H](O)C[C@@]3(C)[C@]1(C)CC2 in this test
Data returned: inactive
